This listing pairs compounds with measured Tmax.
- test: Phase I multiple ascending dose study of ALZ-801 capsule and tablet
- Type: in vivo, human
- settings: both, human, plasma, oral, 265 mg, T max, Day 1, fed, ALZ-801 tablet 265 mg (Cohort D), mean ± SD
State the answer as a number, implicitly in h.

> print(dat)
                                   compound  assay.readout  units.label  recorded.measurement
1  NCCCS(=O)(=O)O [tramiprosate, 3-amino-1-propanesulfonic acid]           Tmax            h                  3.56

Could you now look at the following compound, please?
Return Tmax for the following compound: `CC(C)[C@H](N)C(=O)NCCCS(=O)(=O)O`
2.45
